# Tested on: Canis familiaris
# assay method text: Percent change in mean arterial blood pressure (MAP) in anesthetized open chest dogs iv administration at 0.8750 mg/kg
# Format: functional, Canis lupus familiaris
# condition context: dose 0.875 mg/kg

>  <molecule smiles>
COC(=O)Cc1c(O)nc(C)c2cc(OC)c(OC)cc12

>  <Change (%)>
-1

$$$$
>  <molecule smiles>
CCOc1cc2c(C)nc(O)c(CC)c2cc1OC

>  <Change (%)>
-46

$$$$
>  <molecule smiles>
COC(=O)CCc1c(O)nc(C)c2cc3c(cc12)OCO3

>  <Change (%)>
-21

$$$$
>  <molecule smiles>
Br.COc1cc2c(C)nc(O)c(Br)c2cc1OC

>  <Change (%)>
-40

$$$$
>  <molecule smiles>
CCOC(=O)CCc1c(O)nc(C)c2cc(OC)c(OC)cc12

>  <Change (%)>
-4

$$$$
>  <molecule smiles>
COC(=O)CCc1c(O)nc(C)c2cc(OC)c(OC)cc12

>  <Change (%)>
-12

$$$$

====

This section presents molecules with their documented Increase values.
# Tested on: Canis familiaris
# assay method text: Percent change in left ventricular pressure (dP/dtmax) in anesthetized dog after iv administration at 1.875 mg/kg
# Assay type: functional, Canis lupus familiaris, Heart left ventricle
quantity kind: Increase (%)

>  <molecule smiles>
COc1cc2c(C)nc(O)c(C3CCCC3)c2cc1OC

>  <measured on>
Canis familiaris

>  <quantity kind>
Increase

>  <quantitative readout>
22

$$$$
>  <molecule smiles>
COC(=O)CCc1c(O)ncc2cc3c(cc12)OCO3

>  <measured on>
Canis familiaris

>  <quantity kind>
Increase

>  <quantitative readout>
28

$$$$
>  <molecule smiles>
CNC(=O)c1c(O)nc(C)c2cc(OC)c(OC)cc12

>  <measured on>
Canis familiaris

>  <quantity kind>
Increase

>  <quantitative readout>
17

$$$$
>  <molecule smiles>
COC(=O)CCc1c(O)nc(C(C)C)c2cc(OC)c(OC)cc12

>  <measured on>
Canis familiaris

>  <quantity kind>
Increase

>  <quantitative readout>
17

$$$$
>  <molecule smiles>
COc1cc2c(C)nc(O)c(CCC(=O)N(C)C)c2cc1OC

>  <measured on>
Canis familiaris

>  <quantity kind>
Increase

>  <quantitative readout>
-5

$$$$
>  <molecule smiles>
CCCc1nc(O)c(CCC(=O)OC)c2cc(OC)c(OC)cc12

>  <measured on>
Canis familiaris

>  <quantity kind>
Increase

>  <quantitative readout>
19

$$$$
>  <molecule smiles>
Cc1nc(O)c(Cl)c2cc3c(cc12)OCO3

>  <measured on>
Canis familiaris

>  <quantity kind>
Increase

>  <quantitative readout>
51

$$$$
>  <molecule smiles>
COc1cc2c(C)nc(O)c(CC(C)C)c2cc1OC

>  <measured on>
Canis familiaris

>  <quantity kind>
Increase

>  <quantitative readout>
25

$$$$
>  <molecule smiles>
COC(=O)c1c(O)nc(C)c2cc(OC)c(OC)cc12

>  <measured on>
Canis familiaris

>  <quantity kind>
Increase

>  <quantitative readout>
19

$$$$
>  <molecule smiles>
COc1cc2c(C)nc(O)c(CCC(=O)OC(C)C)c2cc1OC

>  <measured on>
Canis familiaris

>  <quantity kind>
Increase

>  <quantitative readout>
15

$$$$
>  <molecule smiles>
COc1cc2c(C)nc(O)c(CCC(=O)O)c2cc1OC

>  <measured on>
Canis familiaris

>  <quantity kind>
Increase

>  <quantitative readout>
42

$$$$
>  <molecule smiles>
CCOc1cc2cnc(O)cc2cc1OC

>  <measured on>
Canis familiaris

>  <quantity kind>
Increase

>  <quantitative readout>
32

$$$$
>  <molecule smiles>
COc1ccc2c(C)nc(O)cc2c1OC

>  <measured on>
Canis familiaris

>  <quantity kind>
Increase

>  <quantitative readout>
13

$$$$
>  <molecule smiles>
COc1cc2c(C)nc(O)c(CCC(N)=O)c2cc1OC

>  <measured on>
Canis familiaris

>  <quantity kind>
Increase

>  <quantitative readout>
29

$$$$
